subject of test: E2F3 overexpressed in stable transfected 3T3 cells (nuclear extract) (UniProt O00716 1-465, limits assumed)
Sequence (O00716 whole entry): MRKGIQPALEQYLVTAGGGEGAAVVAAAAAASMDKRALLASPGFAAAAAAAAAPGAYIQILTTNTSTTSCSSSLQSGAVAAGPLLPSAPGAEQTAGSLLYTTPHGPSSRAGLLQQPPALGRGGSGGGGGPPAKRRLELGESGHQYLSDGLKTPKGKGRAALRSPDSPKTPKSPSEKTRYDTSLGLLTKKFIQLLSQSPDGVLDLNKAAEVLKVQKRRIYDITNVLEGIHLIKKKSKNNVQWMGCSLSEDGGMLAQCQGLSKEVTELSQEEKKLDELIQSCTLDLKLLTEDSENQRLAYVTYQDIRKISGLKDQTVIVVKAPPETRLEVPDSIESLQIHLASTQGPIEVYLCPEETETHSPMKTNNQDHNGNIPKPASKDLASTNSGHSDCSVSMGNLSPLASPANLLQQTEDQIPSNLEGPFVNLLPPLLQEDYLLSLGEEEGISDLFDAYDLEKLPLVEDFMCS
protocol: band shift, extract of 3T3 cells overexpressing E2F3; inhibition of DNA binding
Ends that are not written are not given here.
Entries and their IC50

[
  {
    "binder": "GSRILTFRSGSWYAS (also: tetravalent MAP core: 4 copies joined by C-terminus to Lys2-Lys-X core, Branched tetravalent peptide on a lysine MAP core) [MAP4-SEQ ID NO:5]",
    "result type": "IC50",
    "reported": "~30 µM"
  }
]

# ---- query binder ----
What does the data say about its IC50? Entry: WVRWHF (also: tetravalent MAP core: 4 copies joined by C-terminus to Lys2-Lys-X core, Branched tetravalent peptide on a lysine MAP core)
~30 µM
